Kindly supply the reported Ratio values for the records listed here.
ASSAY METHOD TEXT: MIC ratio measured as the mean MICs of gram-negative bacteria
Format: functional
Numbers only.

CCNCC1CCN(c2c(F)c(C)c3c(=O)c(C(=O)O)cn(C4CC4)c3c2F)C1 (centres undefined); 0.15
CCc1c(F)c(N2CCNC(C)C2)cc2c1c(=O)c(C(=O)O)cn2C1CC1 (centres undefined); 1.83
CCNCC1CCN(c2c(F)cc3c(=O)c(C(=O)O)cn(C4CC4)c3c2F)C1 (centres undefined); 0.13
CC1CN(c2cc3c(cc2F)c(=O)c(C(=O)O)cn3C2CC2)CCN1 (centres undefined); 0.066
Cc1c(F)c(N2CCNCC2)cc2c1c(=O)c(C(=O)O)cn2-c1ccc(F)cc1F; 0.13

Could I get Ratio for every one of these entries?
1. Cc1c(F)c(N2CCC(C)(CN)C2)cc2c1c(=O)c(C(=O)O)cn2C1CC1 (centres undefined)
2. CCn1cc(C(=O)O)c(=O)c2c(C)c(F)c(N3CC(C)NC(C)C3)cc21 (centres undefined)
3. CCn1cc(C(=O)O)c(=O)c2c(C)c(F)c(N3CCC(N)C3)c(F)c21 (centres undefined)
4. O=C(O)c1cn(C2CC2)c2c(Cl)c(N3CCNCC3)c(F)cc2c1=O
5. Cc1c(F)c(N2CCC(N)C2)cc2c1c(=O)c(C(=O)O)cn2C1CC1 (centres undefined)
6. CCn1cc(C(=O)O)c(=O)c2cc(F)c(N3CCNCC3)c(F)c21
7. CC1(CN)CCN(c2c(F)cc3c(=O)c(C(=O)O)cn(C4CC4)c3c2F)C1 (centres undefined)

Return:
1: 0.35; 2: 0.79; 3: 0.2; 4: 0.066; 5: 0.087; 6: 0.17; 7: 0.1

* * *

Kindly supply the reported Ratio values for the records listed here.
ASSAY METHOD TEXT: MIC ratio measured as the mean MICs of gram-negative bacteria
Type: functional
Give bare numbers.

Example cases with answers are listed next.
CCNCC1CCN(c2cc3c(cc2F)c(=O)c(C(=O)O)cn3CC)C1 (configuration not stated); 0.6
NC1CCN(c2c(F)cc3c(=O)c(C(=O)O)cn(C4CC4)c3c2Cl)C1 (configuration not stated) [CLINAFLOXACIN]; 0.029
Cc1c(F)c(N2CCC(N)C2)cc2c1c(=O)c(C(=O)O)cn2-c1ccc(F)cc1F (configuration not stated); 0.13

Could I get Ratio for every one of these entries?
1. CCNCC1CCN(c2cc3c(c(C)c2F)c(=O)c(C(=O)O)cn3-c2ccc(F)cc2F)C1 (configuration not stated)
2. CCn1cc(C(=O)O)c(=O)c2cc(F)c(N3CCC(N)C3)cc21 (configuration not stated)
3. Cc1c(F)c(N2CCNC(C)C2)cc2c1c(=O)c(C(=O)O)cn2-c1ccc(F)cc1F (configuration not stated)
4. CCc1c(F)c(N2CCC(N)C2)cc2c1c(=O)c(C(=O)O)cn2C1CC1 (configuration not stated)

Return:
1. 1.05
2. 0.2
3. 0.4
4. 2.09
